Every entry's value here was drawn from patent US10479780B2.

- Target Of Assay: human Lck enzyme (Homo sapiens, UniProt P06239)
- Construct: purchased Carna Biosciences, Inc. 08-170
- Sequence (P06239 whole entry): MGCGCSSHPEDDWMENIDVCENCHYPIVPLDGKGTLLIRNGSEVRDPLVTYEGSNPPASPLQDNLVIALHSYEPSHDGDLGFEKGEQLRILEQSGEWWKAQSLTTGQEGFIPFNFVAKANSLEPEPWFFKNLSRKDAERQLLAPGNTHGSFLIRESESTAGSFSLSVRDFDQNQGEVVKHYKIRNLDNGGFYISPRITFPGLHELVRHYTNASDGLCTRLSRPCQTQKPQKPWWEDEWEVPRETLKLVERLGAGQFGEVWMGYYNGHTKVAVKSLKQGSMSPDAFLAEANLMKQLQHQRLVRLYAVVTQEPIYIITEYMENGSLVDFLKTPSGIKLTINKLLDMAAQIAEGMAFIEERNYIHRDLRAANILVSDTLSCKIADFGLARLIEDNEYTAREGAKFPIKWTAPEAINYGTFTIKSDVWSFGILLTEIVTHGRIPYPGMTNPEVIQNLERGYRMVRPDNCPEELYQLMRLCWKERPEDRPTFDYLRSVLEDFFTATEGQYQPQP
- Assay Overview: Lck enzyme inhibitory activity (time-resolved fluorometry, biotinylated peptide phosphorylation)
- Assay type: biochemical
- Assay Context: biotinylated peptide phosphorylation, read-out: LCK_IC50
pIC50: −log10 of the molar value.
Measured Quantity: pIC50

Cc1cc(Oc2ccccc2F)ncc1-n1ncc(C(=O)c2cc3cc(OCC(F)F)c(N4CCOCC4)cc3[nH]2)c1N :: 8.64

A = Cc1cc2cc(C(=O)c3cnn(-c4cnc(Oc5c(F)cccc5F)cc4C)c3N)[nH]c2cc1N1CCC(N2CCOCC2)CC1
B = Cc1cc(Oc2ccccc2F)ncc1-n1ncc(C(=O)c2cc3cc(F)c(NS(=O)(=O)CC(=O)N4CCOCC4)cc3[nH]2)c1N
Ask: Which has the higher pIC50, A or B ? Choose, then provide that item's label.
Result: A

---

- Target Of Assay: human Lck enzyme (Homo sapiens, UniProt P06239)
- Construct: purchased Carna Biosciences, Inc. 08-170
- Assay Overview: Lck enzyme inhibitory activity (time-resolved fluorometry, biotinylated peptide phosphorylation)
- Type: biochemical
- Assay Context: read-out: LCK_IC50
pIC50: −log10 of the molar value.
Measured Quantity: pIC50

Cc1cc(Oc2c(F)cccc2F)ncc1-n1ncc(C(=O)c2cc3cc(F)c(N4C(=O)NC(C)(C(F)(F)F)C4=O)cc3[nH]2)c1N (stereo not shown) [Example 5-1-370] :: 7.57
Cc1cc2cc(C(=O)c3cnn(-c4cnc(Oc5c(F)cccc5F)cc4C)c3N)[nH]c2cc1N1C(=O)NC2(CCNCC2)C1=O [Example 5-1-357] :: 8.36
Cc1cc(-n2ncc(C(=O)c3cc4cc(OCC(F)F)c(N5CCOC5=O)cc4[nH]3)c2N)ccc1Oc1ccccc1F [Example 5-1-168] :: 7.35

I = Cc1cc(Oc2ccccc2F)ccc1-n1ncc(C(=O)c2cc3cc(F)c(NC(=O)C(F)(F)F)cc3[nH]2)c1N [Example 5-1-029]
II = Cc1cc(Oc2c(F)cccc2F)ncc1-n1ncc(C(=O)c2cc3cc(OC(F)F)c(Br)cc3[nH]2)c1N [Example 5-1-149]
III = Cc1cc(Oc2c(F)cccc2F)ncc1-n1ncc(C(=O)c2cc3cc(F)c(N(C(C)C)S(C)(=O)=O)cc3[nH]2)c1N [Example 5-1-067]
IV = Cc1cc(-n2ncc(C(=O)c3cc4cc(C)c(C5CCN(C(C)C)CC5)cc4[nH]3)c2N)ccc1Oc1ccccc1F [Example 5-1-012]
V = Cc1cc(Oc2ccccc2F)ccc1-n1ncc(C(=O)c2cc3cc(OCC(F)F)c(N4C(=O)NC5(CCNCC5)C4=O)cc3[nH]2)c1N [Example 5-1-271]
Ask: Rank order required: pIC50, descending. Reply with the item labels sorted in the order that was asked for.
Result: V, III, I, IV, II
(V: 8.49, III: 8.25, I: 7.89, IV: 7.64, II: 7.37)

P = Cc1cc(Oc2c(F)cccc2F)ncc1-n1ncc(C(=O)c2cc3cc(OC4CCN(C5CCCC5)CC4)c(-c4ccccc4F)cc3[nH]2)c1N [Example 5-1-310]
Q = Cc1cc(Oc2c(F)cccc2F)ncc1-n1ncc(C(=O)c2cc3cc(F)c(N4C(=O)NC5(COC5)C4=O)cc3[nH]2)c1N [Example 5-1-345]
Ask: Which has the higher pIC50, P or Q ? Choose, then provide that item's label.
Result: Q

---

- Target Of Assay: human Lck enzyme (Homo sapiens)
- Construct: purchased Carna Biosciences, Inc. 08-170
- Assay Overview: Lck enzyme inhibitory activity (time-resolved fluorometry, biotinylated peptide phosphorylation)
- Assay type: biochemical
- Assay Context: read-out: LCK_IC50
Measured Quantity: IC50 (nM)

1 = CC(C)N1CCC(c2cc3[nH]c(C(=O)c4cnn(-c5ccc(Oc6ccccc6F)cc5)c4N)cc3cc2F)CC1 [Example 5-1-007]
2 = Cc1cc(-n2ncc(C(=O)c3cc4cc(OCC(F)F)c(N5CCOCC5)cc4[nH]3)c2N)ccc1Oc1ccccc1F [Example 5-1-169]
3 = Cc1cc(Oc2ccccc2F)ccc1-n1ncc(C(=O)c2cc3cc(N4CCOCC4)c(N4CCOCC4)cc3[nH]2)c1N [Example 5-1-094]
4 = Cc1cc(Oc2c(F)cccc2F)ncc1-n1ncc(C(=O)c2cc3cc(OCC(F)F)c(NS(=O)(=O)C4CCCCC4)cc3[nH]2)c1N [Example 5-1-315]
Ask: Descending by IC50 please, for everything listed above. Reply with the item labels sorted in the order that was asked for.
Result: 4, 2, 3, 1
(4: 130 nM, 2: 46 nM, 3: 4.1 nM, 1: 2.2 nM)

---

- Target Of Assay: human Yes1 enzyme (Homo sapiens)
- Construct: made in house
- Assay Overview: Yes1 enzyme inhibitory activity (time-resolved fluorometry, biotinylated peptide phosphorylation)
- Type: biochemical
- Assay Context: biotinylated peptide phosphorylation, read-out: YES_IC50
Measured Quantity: IC50 (nM)

Consider the following illustrative entries.
Cc1cc(Oc2cc(F)ccc2Cl)ncc1-n1ncc(C(=O)c2cc3cc(F)c(NS(C)(=O)=O)cc3[nH]2)c1N :: 4.6
Cc1cc(Oc2ccccc2F)ccc1-n1ncc(C(=O)c2cc3cc(OCC(F)F)c(NS(=O)(=O)N4CCOCC4)cc3[nH]2)c1N :: 1.8
Cc1cc2cc(C(=O)c3cnn(-c4cnc(Oc5c(F)cccc5F)cc4C)c3N)[nH]c2cc1N1CCC(N2CCOCC2)CC1 :: 2.4

I = Cc1cc(Oc2c(F)cccc2F)ncc1-n1ncc(C(=O)c2cc3cc(OCC(F)F)c(NS(=O)(=O)c4cccc(F)n4)cc3[nH]2)c1N
II = Cc1cc(Oc2ccccc2F)ncc1-n1ncc(C(=O)c2cc3cc(N4CCOCC4)c(NS(C)(=O)=O)cc3[nH]2)c1N
III = Cc1cnc(F)c(S(=O)(=O)Nc2cc3[nH]c(C(=O)c4cnn(-c5cnc(Oc6ccccc6F)cc5C)c4N)cc3cc2F)c1
IV = Cc1cc(Oc2c(F)cccc2F)ncc1-n1ncc(C(=O)c2cc3cc(F)c(NS(=O)(=O)c4cccc(Cl)c4)cc3[nH]2)c1N
Ask: Rank order required: IC50, descending. Reply with the item labels sorted in the order that was asked for.
Result: IV, III, I, II

A = Cc1cc(Oc2cccc(Cl)c2)ncc1-n1ncc(C(=O)c2cc3cc(F)c(NS(C)(=O)=O)cc3[nH]2)c1N
B = Cc1cc2[nH]c(C(=O)c3cnn(-c4cnc(Oc5ccccc5F)cc4C)c3N)cc2cc1NS(C)(=O)=O
Ask: Which has the higher IC50, A or B ? Choose, then provide that item's label.
Result: A
(A: 1.1 nM, B: 0.44 nM)

---

- Target Of Assay: human Src enzyme (Homo sapiens, UniProt P12931)
- Construct: purchased Carna Biosciences, Inc. 08-173
- Sequence (P12931 whole entry): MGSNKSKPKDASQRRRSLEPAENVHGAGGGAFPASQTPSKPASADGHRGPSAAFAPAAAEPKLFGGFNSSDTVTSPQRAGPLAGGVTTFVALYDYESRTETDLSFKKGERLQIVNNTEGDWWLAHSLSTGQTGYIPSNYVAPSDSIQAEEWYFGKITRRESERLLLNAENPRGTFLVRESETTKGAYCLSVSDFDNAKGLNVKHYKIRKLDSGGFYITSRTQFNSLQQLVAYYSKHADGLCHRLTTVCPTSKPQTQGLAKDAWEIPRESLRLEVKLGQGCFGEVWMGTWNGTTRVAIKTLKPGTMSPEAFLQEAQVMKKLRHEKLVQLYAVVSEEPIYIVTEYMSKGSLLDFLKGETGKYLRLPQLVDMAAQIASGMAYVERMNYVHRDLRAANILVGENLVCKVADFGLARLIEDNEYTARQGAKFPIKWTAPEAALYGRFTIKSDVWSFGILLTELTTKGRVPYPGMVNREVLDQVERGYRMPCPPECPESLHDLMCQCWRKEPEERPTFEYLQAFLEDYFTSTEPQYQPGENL
- Assay Overview: Src enzyme inhibitory activity (time-resolved fluorometry, biotinylated peptide phosphorylation)
- Format: biochemical
- Assay Context: read-out: SRC_IC50
pIC50: −log10 of the molar value.
Measured Quantity: pIC50

COc1cccc(S(=O)(=O)Nc2cc3[nH]c(C(=O)c4cnn(-c5cnc(Oc6c(F)cccc6F)cc5C)c4N)cc3cc2OCC(F)F)c1 [Example 5-1-327] :: 6.04

A = CS(=O)(=O)Nc1cc2[nH]c(C(=O)c3cnn(-c4c(Cl)cc(Oc5cccc(F)c5F)cc4Cl)c3N)cc2cc1F [Example 5-1-024]
B = COc1cc2cc(C(=O)c3cnn(-c4c(C)cc(Oc5ccccc5F)cc4F)c3N)[nH]c2cc1NS(=O)(=O)CC(=O)N1CCCC1 [Example 5-1-130]
Ask: For the pair A and B , which entry has the numerically smaller recorded pIC50? Choose, then provide that item's label.
Result: A

---

- Target Of Assay: human Yes1 enzyme (Homo sapiens, UniProt P07947)
- Construct: made in house
- Sequence (P07947 whole entry): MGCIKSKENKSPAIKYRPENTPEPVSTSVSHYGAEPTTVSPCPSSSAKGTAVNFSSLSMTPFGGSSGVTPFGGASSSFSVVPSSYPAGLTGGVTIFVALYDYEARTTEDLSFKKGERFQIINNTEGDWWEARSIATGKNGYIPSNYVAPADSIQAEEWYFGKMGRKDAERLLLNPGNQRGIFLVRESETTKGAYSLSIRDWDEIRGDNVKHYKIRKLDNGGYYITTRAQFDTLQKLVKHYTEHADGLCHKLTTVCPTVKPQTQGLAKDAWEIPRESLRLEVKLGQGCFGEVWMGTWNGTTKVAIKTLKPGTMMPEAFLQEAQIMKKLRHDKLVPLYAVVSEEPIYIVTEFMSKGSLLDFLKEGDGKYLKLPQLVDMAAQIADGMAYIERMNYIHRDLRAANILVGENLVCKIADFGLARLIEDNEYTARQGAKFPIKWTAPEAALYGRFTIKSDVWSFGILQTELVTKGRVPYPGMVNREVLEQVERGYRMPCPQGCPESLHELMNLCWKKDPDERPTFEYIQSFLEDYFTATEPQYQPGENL
- Assay Overview: Yes1 enzyme inhibitory activity (time-resolved fluorometry, biotinylated peptide phosphorylation)
- Format: biochemical
- Assay Context: read-out: YES_IC50
- Description: 1. Yes1 Enzyme Inhibitory Activity Yes1 inhibitory activity was determined based on activity of inhibiting phosphorylation reaction of a biotinylated peptide (EGPWLEEEEEAYGWMDF) using a human Yes1 enzyme prepared using a baculovirus expression system. The phosphorylated biotinylated peptide was detected by time-resolved fluorometry using an anti-phosphorylated tyrosine antibody conjugated to europium cryptate, and streptavidin conjugated to XL665, an allophycocyanin derivative. […]
pIC50: −log10 of the molar value.
Measured Quantity: pIC50

Consider the following illustrative entries.
Cc1cc(Oc2ccccc2F)ccc1-n1ncc(C(=O)c2cc3cc(F)c(N4C(=O)NC5(CCC5)C4=O)cc3[nH]2)c1N :: 8.54
Cc1cc(-n2ncc(C(=O)c3cc4cc(OC5CCN(C(C)C)CC5)c(N5C(=O)N[C@@H](Cc6ccccc6)C5=O)cc4[nH]3)c2N)ccc1Oc1ccccc1F :: 8.66
Cc1cc(Oc2ccccc2F)ccc1-n1ncc(C(=O)c2cc3cc(F)c(NC(=O)C(F)(F)F)cc3[nH]2)c1N :: 9.14

P = CS(=O)(=O)Nc1cc2[nH]c(C(=O)c3cnn(-c4c(F)cc(Oc5cccc(F)c5F)cc4F)c3N)cc2cc1F
Q = Cc1cc(Oc2ccccc2F)ccc1-n1ncc(C(=O)c2cc3cc(F)c(N4CCN(S(C)(=O)=O)CC4)cc3[nH]2)c1N
R = Cc1cc(Oc2ccccc2F)ncc1-n1ncc(C(=O)c2cc3cc(F)c(NS(=O)(=O)NC4CC4)cc3[nH]2)c1N
Ask: Sort low-to-high on pIC50, please. Reply with the item labels sorted in the order that was asked for.
Result: R, P, Q
